These data points were gathered from PubChem BioAssay (NCI).

Tested on: MCF7 breast
Assay: NCI tumour cell line growth inhibition, 48 h
Reported TGI values for a set of compounds

{"columns": ["compound smiles", "qualifier symbol", "TGI / nM"],
 "data": [
  ["CN(C)CCNc1ccc2c(=O)n(CCN(C)C)c(=O)n3c4ccccc4c(=O)c1c23", "=", 1780],
  ["Cc1c2cnccc2c(C)c2c1c1cc(CO)ccc1n2C", "=", 1370],
  ["O=C(O)CCCn1c(SCc2c(Cl)cccc2Cl)nc2ccsc2c1=O", ">", 100000],
  ["CC(=O)OC[C@]1(C)C=C2C(=O)[C@](C)(O)C3(CC3)C(C)=C2[C@H]1OC(=O)N(C)CCN(C)C(=O)OC(C)(C)C", ">", 33300],
  ["COC(=O)C1=C2SCc3ccc(cc3)CSC3=C(C(=O)OC)SC(=C(S2)S1)S3", ">", 100000]
]}
